- Test system: recombinant human CFTR carrying the premature stop codon (PTC) mutation G542X
- ASSAY INFO: CFTR-PTC mutant translation readthrough, Nanoluc tagged CFTR luminescence (G542X cell line)
- Format: cell-based
- ASSAY SETUP: fold over 10 μM G-418; in combination with G418; G542X cell line

{"columns": ["COMPOUND", "CFTR G542X ACTIVITY Fold 10 μM G-418"],
 "data": [
  ["OCc1ncn(-c2ncc(OCc3c(Cl)cccc3C(F)(F)F)cn2)n1", "A′ (A′ = ≥10X)"],
  ["OCc1ccn(-c2ncc(OCc3c(Cl)cccc3Cl)cn2)n1", "A′ (A′ = ≥10X)"],
  ["NC(=O)c1ccc(OCc2c(Cl)cccc2Cl)cn1", "A′ (A′ = ≥10X)"],
  ["O=C1OC(CO)CN1c1ccc(OCc2cc(Cl)cc(Cl)c2)cn1 (stereo not shown)", "A′ (A′ = ≥10X)"],
  ["OCc1cn(-c2ccc(CCc3c(Cl)cccc3Cl)cn2)cn1", "B′ (B′ = ≥5X to <10X)"],
  ["OCc1ncn(-c2ccc(OCc3c(Cl)cccc3C(F)(F)F)cc2)n1", "A′ (A′ = ≥10X)"],
  ["CN(C)C(=O)N1CCN(c2ncc(OCc3c(Cl)cccc3Cl)cn2)CC1", "B′ (B′ = ≥5X to <10X)"],
  ["OCC1(F)CCN(c2ncc(OCc3c(Cl)cccc3Cl)cn2)CC1", "A′ (A′ = ≥10X)"],
  ["O=C(NCC1CN(c2ncc(OCc3c(Cl)cccc3Cl)cn2)CCO1)C(F)(F)F (stereo not shown)", "A′ (A′ = ≥10X)"],
  ["OCc1ncn(-c2ccc(OCc3c(Cl)cccc3OC(F)F)cc2)n1", "A′ (A′ = ≥10X)"],
  ["OCc1cnn(-c2ncc(OCc3c(Cl)cccc3C(F)(F)F)cn2)n1", "A′ (A′ = ≥10X)"],
  ["Cc1cccc(C(F)(F)F)c1COc1cnc(-c2cc(CO)on2)nc1", "A′ (A′ = ≥10X)"],
  ["OC[C@H]1CN(c2ncc(OCc3c(Cl)cccc3Cl)cn2)C[C@@H](C(F)(F)F)O1 (racemic)", "A′ (A′ = ≥10X)"],
  ["Cc1cccc(C(F)(F)F)c1COc1ccc(-n2cnc(CO)n2)cc1", "A′ (A′ = ≥10X)"],
  ["O=C(O)c1ncn(-c2ccc(OCc3c(Cl)cccc3C(F)(F)F)cn2)n1 [1-[5-[[2-chloro-6-(trifluoromethyl)phenyl]methoxy]-2-pyridyl]", "B′ (B′ = ≥5X to <10X)"],
  ["Cc1cccc(C(F)(F)F)c1COc1cnc(N2CCC(CO)(CO)CC2)nc1", "A′ (A′ = ≥10X)"],
  ["Clc1cccc(Cl)c1COc1cnc(-n2cc(-c3ccccn3)nn2)nc1", "A′ (A′ = ≥10X)"],
  ["OCCN1CCN(c2ncc(OCc3c(Cl)cccc3Cl)cn2)CC1", "A′ (A′ = ≥10X)"],
  ["Cc1cccc(C(F)(F)F)c1COc1ccc(N2CC(=O)N(C)C2=O)nc1", "A′ (A′ = ≥10X)"],
  ["N#Cc1ncn(-c2ncc(OCc3c(Cl)cccc3Cl)cn2)n1", "A′ (A′ = ≥10X)"],
  ["Cc1cccc(C(F)(F)F)c1COc1cnc(-n2ccc(CO)n2)nc1", "A′ (A′ = ≥10X)"],
  ["Cc1cccc(C(F)(F)F)c1COc1cnc(-n2cc(-c3ccccn3)nn2)nc1", "A′ (A′ = ≥10X)"],
  ["Cc1cccc(C(F)(F)F)c1COc1cnc(N2CC[C@H](C(N)=O)C2)nc1", "A′ (A′ = ≥10X)"],
  ["NC(=O)[C@H]1CCN(c2ncc(OCc3c(Cl)cccc3C(F)(F)F)cn2)C1", "A′ (A′ = ≥10X)"],
  ["O=C(O)C1CCCN(c2ncc(OCc3c(Cl)cccc3C(F)(F)F)cn2)C1 (stereo not shown) [1-[5-[[2-chloro-6-(trifluoromethyl)phenyl]methoxy]pyrimidin-]", "C′ (C′ = <5X)"],
  ["CN1C(=O)CN(c2ncc(OCc3c(Cl)cccc3C(F)(F)F)cn2)CC1CO (stereo not shown)", "C′ (C′ = <5X)"],
  ["O=C1O[C@H](CO)CN1c1ccc(OCc2c(Cl)cccc2Cl)cc1", "B′ (B′ = ≥5X to <10X)"],
  ["NC(=O)c1ccn(-c2ncc(OCc3c(Cl)cccc3Cl)cn2)n1", "A′ (A′ = ≥10X)"],
  ["Cc1cccc(C(F)(F)F)c1COc1ccc(N2C(=O)NC(C)(C)C2=O)cc1", "A′ (A′ = ≥10X)"],
  ["Clc1cccc(Cl)c1COc1cnc(-n2ncc(-c3ccccn3)n2)nc1", "A′ (A′ = ≥10X)"],
  ["O=C1N[C@@H](CO)CN1c1ccc(OCc2c(Cl)cccc2Cl)cn1", "A′ (A′ = ≥10X)"],
  ["OCCOCCN1CCN(c2ncc(OCc3c(Cl)cccc3Cl)cn2)CC1", "A′ (A′ = ≥10X)"],
  ["NCc1ccn(-c2ccc(OCc3c(Cl)cccc3Cl)cc2)n1", "B′ (B′ = ≥5X to <10X)"],
  ["Cc1cccc(C(F)(F)F)c1COc1cnc(N2CCC(O)C(C)(C)C2)nc1 (stereo not shown)", "A′ (A′ = ≥10X)"],
  ["Cc1cccc(C(F)(F)F)c1COc1cnc(NC(=O)N(C)C)nc1", "A′ (A′ = ≥10X)"],
  ["Cc1cccc(C(F)(F)F)c1COc1ccc(N2C(=O)CN(C)C2=O)cc1", "A′ (A′ = ≥10X)"],
  ["Cn1cc(-c2ccc(OCc3c(Cl)cccc3Cl)cn2)nn1", "A′ (A′ = ≥10X)"],
  ["O=C1CN(c2ncc(OCc3c(Cl)cccc3Cl)cn2)CCN1CCO", "A′ (A′ = ≥10X)"],
  ["CCCCN1CC(=O)N(c2ccc(OCc3c(C)cccc3C(F)(F)F)cc2)C1=O", "B′ (B′ = ≥5X to <10X)"],
  ["OCCn1ccc(Nc2ccc(OCc3c(Cl)cccc3Cl)cn2)n1", "A′ (A′ = ≥10X)"],
  ["Cc1cccc(C(F)(F)F)c1COc1cnc(N2CCNC(=O)C2)nc1", "A′ (A′ = ≥10X)"],
  ["Cc1cccc(C(F)(F)F)c1COc1cnc(N2CCN3C(=O)COCC3C2)nc1 (stereo not shown)", "A′ (A′ = ≥10X)"],
  ["Clc1cccc(Cl)c1COc1cnc(N2C[C@H]3COC[C@H]3C2)nc1", "A′ (A′ = ≥10X)"]
]}

* * *

- Tested on: recombinant human CFTR carrying the premature stop codon (PTC) mutation G542X
- ASSAY INFO: CFTR-PTC mutant translation readthrough, Nanoluc tagged CFTR luminescence (G542X cell line)
- Assay type: cell-based
- ASSAY SETUP: fold over 10 μM G-418; in combination with G418; G542X cell line

{"columns": ["COMPOUND", "CFTR G542X ACTIVITY Fold 10 μM G-418"],
 "data": [
  ["CCc1cccc(C(F)(F)F)c1COc1ccc(N2CCOC(CO)C2)cc1 (centres unmarked)", "A′ (A′ = ≥10X)"],
  ["Cc1cccc(C(F)(F)F)c1COc1cnc(N2CCO[C@H](CN)C2)nc1", "A′ (A′ = ≥10X)"],
  ["O=C(O)c1ncn(-c2ccc(OCc3c(Cl)cccc3C(F)(F)F)cn2)n1 [1-(5-{[2-chloro-6-(trifluoromethyl)phenyl]methoxy]pyridin-2-]", "C′ (C′ = <5X)"],
  ["O=C1OC(CO)CN1c1ccc(OCc2c(Cl)cccc2OC(F)F)cc1 (centres unmarked)", "C′ (C′ = <5X)"],
  ["Cc1cccc(C(F)(F)F)c1COc1cnc(N2CCOC(CO)C2)nc1 (centres unmarked)", "A′ (A′ = ≥10X)"]
]}

* * *

- Test system: recombinant human CFTR carrying the premature stop codon (PTC) mutation G542X
- ASSAY INFO: CFTR-PTC mutant translation readthrough, Nanoluc tagged CFTR luminescence (G542X cell line)
- Type: cell-based
- ASSAY SETUP: fold over 10 μM G-418; in combination with G418; G542X cell line

{"columns": ["MOLECULE", "TARGET", "CFTR G542X ACTIVITY Fold 10 μM G-418"],
 "data": [
  ["Cc1cccc(C(F)(F)F)c1COc1cnc(N2CC[S+]([O-])CC2)nc1", "recombinant human CFTR carrying the premature stop codon (PTC) mutation G542X", "A′ (A′ = ≥10X)"],
  ["NCc1cn(-c2ccc(OCc3c(Cl)cccc3Cl)cn2)nn1", "recombinant human CFTR carrying the premature stop codon (PTC) mutation G542X", "A′ (A′ = ≥10X)"],
  ["NC(=O)C1CN(c2ncc(OCc3c(Cl)cccc3C(F)(F)F)cn2)CCO1 (stereo not shown)", "recombinant human CFTR carrying the premature stop codon (PTC) mutation G542X", "A′ (A′ = ≥10X)"],
  ["Cc1cccc(C(F)(F)F)c1COc1cnc(N2CCN(C(N)=O)C(CO)C2)nc1 (stereo not shown)", "recombinant human CFTR carrying the premature stop codon (PTC) mutation G542X", "A′ (A′ = ≥10X)"],
  ["Cc1cccc(C(F)(F)F)c1COc1ccc(-n2cnc(CO)c2)nc1", "recombinant human CFTR carrying the premature stop codon (PTC) mutation G542X", "A′ (A′ = ≥10X)"],
  ["FC(F)(F)c1cccc(Cl)c1COc1cnc(-n2cncn2)nc1", "recombinant human CFTR carrying the premature stop codon (PTC) mutation G542X", "A′ (A′ = ≥10X)"],
  ["Cc1cccc(C(F)(F)F)c1COc1cnc(N2CCC(O)(c3ccccn3)CC2)nc1", "recombinant human CFTR carrying the premature stop codon (PTC) mutation G542X", "A′ (A′ = ≥10X)"],
  ["CC1(C)CN(c2ncc(OCc3c(Cl)cccc3Cl)cn2)CC(CO)O1 (stereo not shown)", "recombinant human CFTR carrying the premature stop codon (PTC) mutation G542X", "A′ (A′ = ≥10X)"],
  ["O=C1O[C@@H](CO)CN1c1ccc(OCc2c(Cl)cccc2Cl)cc1", "recombinant human CFTR carrying the premature stop codon (PTC) mutation G542X", "A′ (A′ = ≥10X)"],
  ["CC1CN(c2ncc(OCc3c(Cl)cccc3Cl)cn2)CCN1C(N)=O (stereo not shown)", "recombinant human CFTR carrying the premature stop codon (PTC) mutation G542X", "A′ (A′ = ≥10X)"],
  ["O=C1OC(CO)CN1c1ccc(OCc2c(Cl)cccc2C2CC2)cc1 (stereo not shown)", "recombinant human CFTR carrying the premature stop codon (PTC) mutation G542X", "A′ (A′ = ≥10X)"],
  ["NC(=O)N1CCN(c2ncc(OCc3c(Cl)cccc3Cl)cn2)CC1CO (stereo not shown)", "recombinant human CFTR carrying the premature stop codon (PTC) mutation G542X", "A′ (A′ = ≥10X)"],
  ["O=C1O[C@H](CO)CN1c1ccc(OCc2c(Cl)cccc2C(F)(F)F)cn1", "recombinant human CFTR carrying the premature stop codon (PTC) mutation G542X", "A′ (A′ = ≥10X)"],
  ["O=C1OC(CO)CN1c1ccc(OCc2c(Cl)cccc2Cl)cn1 (stereo not shown)", "recombinant human CFTR carrying the premature stop codon (PTC) mutation G542X", "A′ (A′ = ≥10X)"],
  ["Cc1cccc(C(F)(F)F)c1COc1cnc(N2CC(=O)NC2=O)nc1", "recombinant human CFTR carrying the premature stop codon (PTC) mutation G542X", "A′ (A′ = ≥10X)"],
  ["Cc1cccc(C(F)(F)F)c1COc1cnc(N2CCN(C(N)=O)[C@@H](C)C2)nc1", "recombinant human CFTR carrying the premature stop codon (PTC) mutation G542X", "A′ (A′ = ≥10X)"],
  ["O=C1OC(CO)CN1c1ccc(CCc2c(Cl)cccc2Cl)cn1 (stereo not shown)", "recombinant human CFTR carrying the premature stop codon (PTC) mutation G542X", "B′ (B′ = ≥5X to <10X)"],
  ["N#Cc1ccn(-c2ncc(OCc3c(Cl)cccc3Cl)cn2)n1", "recombinant human CFTR carrying the premature stop codon (PTC) mutation G542X", "A′ (A′ = ≥10X)"],
  ["Cc1cccc(C(F)(F)F)c1COc1ccc(-n2cnc(CN)c2)nc1", "recombinant human CFTR carrying the premature stop codon (PTC) mutation G542X", "A′ (A′ = ≥10X)"],
  ["NC(=O)CN1CCN(c2ncc(OCc3c(Cl)cccc3Cl)cn2)CC1", "recombinant human CFTR carrying the premature stop codon (PTC) mutation G542X", "B′ (B′ = ≥5X to <10X)"],
  ["CC(=O)NC[C@@H]1CN(c2ncc(OCc3c(C)cccc3C(F)(F)F)cn2)CCO1", "recombinant human CFTR carrying the premature stop codon (PTC) mutation G542X", "A′ (A′ = ≥10X)"]
]}
